# Tested on: HT-29
# protocol-description: NCI tumour cell line growth inhibition, 48 h
The source made the active and inactive calls. No stated cut-off is given here; in the data, active = GI50 up to about 1.1 µM and inactive = higher.
Pick one and only one: active, inactive

Field: example entries. Status: answers known.
> print(dat)
                                   compound     class
1           CC(C)(/N=N/C(C)(C)C(=N)N)C(=N)N  inactive
2  CCOC(=O)C1=C(C)NC2=C(C(=O)N(c3ccccc3)C2c2ccccc2)C1c1ccccc1 (stereo not given)  inactive
3  Cc1ccc(NC(=O)c2ccc(OP(=O)(O)Nc3ccc(C)cc3)cc2)cc1  inactive

For this compound, state the assay outcome: O=C(/C=C(\C(=O)c1cccs1)c1cccs1)c1ccc(C(=O)/C=C(\C(=O)c2cccs2)c2cccs2)cc1
inactive
